Values compiled from BindingDB's records for doi:10.1021/jm00107a048.

Measured Target: Platelet-activating factor receptor (Canis lupus familiaris)
Assay Protocol: PAF-antagonist activity determined in dog platelets by PAF-binding assay
Measure: IC50

smiles_str=Cc1nnc2n1-c1ccc(C#CCN3C(=O)c4ccccc4C3=O)cc1C(c1ccccc1F)=NC2 measured_target="Platelet-activating factor receptor (Canis lupus familiaris)" result="10 nM"
smiles_str=Cc1nnc2n1-c1sc(C#CCn3ncc4ccccc43)cc1C(c1ccccc1Cl)=NC2 measured_target="Platelet-activating factor receptor (Canis lupus familiaris)" result="1 nM"
smiles_str=Cc1nnc2n1-c1sc(I)cc1C(c1cc([N+](=O)[O-])ccc1Cl)=NC2 measured_target="Platelet-activating factor receptor (Canis lupus familiaris)" result="360 nM"
smiles_str=Cc1nnc2n1-c1sc(C#CCN3C(=O)c4cccc5cccc3c45)cc1C(c1ccccc1Cl)=NC2 measured_target="Platelet-activating factor receptor (Canis lupus familiaris)" result="5 nM"
smiles_str=Cc1nnc2n1-c1sc(C#CCN3C(=O)CCc4ccc(Cl)cc43)cc1C(c1ccccc1Cl)=NC2 measured_target="Platelet-activating factor receptor (Canis lupus familiaris)" result="7 nM"
